- target-under-test: Thymidylate synthase (Mus musculus)
- Sequence (P07607 whole entry): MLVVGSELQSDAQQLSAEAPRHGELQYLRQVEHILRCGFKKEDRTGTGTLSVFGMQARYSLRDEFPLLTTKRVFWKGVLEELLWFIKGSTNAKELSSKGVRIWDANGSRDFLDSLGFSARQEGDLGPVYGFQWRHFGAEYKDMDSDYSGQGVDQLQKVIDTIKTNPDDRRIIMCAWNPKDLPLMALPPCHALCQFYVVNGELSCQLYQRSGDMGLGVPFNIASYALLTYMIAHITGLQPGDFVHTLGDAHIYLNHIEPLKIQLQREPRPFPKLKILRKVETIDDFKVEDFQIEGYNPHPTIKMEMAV
- experiment-notes: In vitro inhibitory activity against thymidylate synthase partially purified from L1210 mouse leukemia cells
Recorded pIC50, one value per entry.
pIC50 is a log-scale quantity: -log10 of the concentration expressed in molar.

[
  {
    "compound": "C#CCN(Cc1ccc2nc(CNS(C)(=O)=O)nc(O)c2c1)c1ccc(C(=O)NCc2cccc([N+](=O)[O-])c2)cc1",
    "target-under-test": "Thymidylate synthase (Mus musculus)",
    "pIC50": 6.74
  },
  {
    "compound": "C#CCN(Cc1ccc2nc(CSc3nccc(N)n3)nc(O)c2c1)c1ccc(C(=O)NCc2cccc([N+](=O)[O-])c2)cc1",
    "target-under-test": "Thymidylate synthase (Mus musculus)",
    "pIC50": 6.08
  },
  {
    "compound": "C#CCN(Cc1cc2c(=O)[nH]c(CSc3ncccn3)nc2cc1C)c1ccc(C(=O)NCc2cccc([N+](=O)[O-])c2)c(F)c1",
    "target-under-test": "Thymidylate synthase (Mus musculus)",
    "pIC50": 6.96
  },
  {
    "compound": "C#CCN(Cc1cc2c(O)nc(CN(C)CCN(C)C)nc2cc1C)c1ccc(C(=O)NCc2cccc([N+](=O)[O-])c2)c(F)c1",
    "target-under-test": "Thymidylate synthase (Mus musculus)",
    "pIC50": 6.70
  },
  {
    "compound": "C#CCN(Cc1ccc2nc(CN(C)CCN(C)C)nc(O)c2c1)c1ccc(C(=O)NCc2cccc([N+](=O)[O-])c2)cc1",
    "target-under-test": "Thymidylate synthase (Mus musculus)",
    "pIC50": 6.09
  },
  {
    "compound": "C#CCN(Cc1cc2c(O)nc(CN3CCOCC3)nc2cc1C)c1ccc(C(=O)NCc2cccc([N+](=O)[O-])c2)c(F)c1",
    "target-under-test": "Thymidylate synthase (Mus musculus)",
    "pIC50": 7.00
  },
  {
    "compound": "C#CCN(Cc1ccc2nc(COCCOC)nc(O)c2c1)c1ccc(C(=O)NCc2cccc([N+](=O)[O-])c2)cc1",
    "target-under-test": "Thymidylate synthase (Mus musculus)",
    "pIC50": 6.19
  },
  {
    "compound": "C#CCN(Cc1cc2c(O)nc(CO)nc2cc1C)c1ccc(C(=O)NCc2cccc([N+](=O)[O-])c2)c(F)c1",
    "target-under-test": "Thymidylate synthase (Mus musculus)",
    "pIC50": 7.14
  }
]

Form field pIC50, entry C#CCN(Cc1cc2c(=O)[nH]c(CN(C)C)nc2cc1C)c1ccc(C(=O)NCc2cccc([N+](=O)[O-])c2)c(F)c1 : 6.85

Form field pIC50, entry C#CCN(Cc1ccc2nc(CNC)nc(O)c2c1)c1ccc(C(=O)NCc2cccc([N+](=O)[O-])c2)cc1 : 5.38

Form field pIC50, entry C#CCN(Cc1ccc2nc(C)nc(O)c2c1)c1ccc(C(=O)NC(Cc2cccc([N+](=O)[O-])c2)C(=O)O)cc1 (stereo not given) : 8.00

Form field pIC50, entry Cc1cc2nc(CN3CCN(C)CC3)nc(O)c2cc1CN(C)c1ccc(C(=O)NC(CCC(=O)O)C(=O)O)c(F)c1 (stereo not given) : 7.55

Form field pIC50, entry Cc1cc2nc(CN(C)C)nc(O)c2cc1CN(C)c1ccc(C(=O)NCc2cccc([N+](=O)[O-])c2)c(F)c1 : 7.08

Form field pIC50, entry C#CCN(Cc1ccc2nc(CSc3nc(N)cc(O)n3)nc(O)c2c1)c1ccc(C(=O)NCc2cccc([N+](=O)[O-])c2)cc1 : 5.98

Form field pIC50, entry C#CCN(Cc1ccc2nc(CO)nc(O)c2c1)c1ccc(C(=O)NCc2cccc([N+](=O)[O-])c2)cc1 : 6.52
